The measured values listed here are drawn from patent US20100093993A1.

test system: rabbit neutrophil; test: Influence on rabbit neutrophil H2O2 production (H2DCFDA fluorescence); format: cell-based; settings: 100 μM, 2 hours at 37° C., rabbit neutrophils
Readout type: H2O2 production

(Q) Give recorded H2O2 production with rabbit neutrophil for the following molecule: CCCCCCCCCCCCCCCC(CCCCCCCCCCCCCCC)C(=O)NCC1O[C@H](O[C@H]2OC(CNC(=O)C(CCCCCCCCCCCCCCC)CCCCCCCCCCCCCCC)[C@@H](O)C(O)C2O)C(O)C(O)[C@@H]1O (stereo partly drawn)
(A) 0.16 ± 0.03 nmol/10^5 Cells

(Q) Param readout= H2O2 production; system= rabbit neutrophil; entry= CCCCCCCCCCCCCCCCC(CCCCCCCCCCCCCCCC)C(=O)NCC1O[C@H](O[C@H]2OC(CNC(=O)C(CCCCCCCCCCCCCCCC)CCCCCCCCCCCCCCCC)[C@@H](O)C(O)C2O)C(O)C(O)[C@@H]1O (stereo partly drawn) ; returns value.
(A) 0.15 ± 0.02 nmol/10^5 Cells

(Q) // lookup H2O2 production | system=rabbit neutrophil | key= CCCCCCCCCCC(CCCCCCCCCC)C(=O)NCC1O[C@H](O[C@H]2OC(CNC(=O)C(CCCCCCCCCC)CCCCCCCCCC)[C@@H](O)C(O)C2O)C(O)C(O)[C@@H]1O (stereo partly drawn)
(A) 0.38 ± 0.05 nmol/10^5 Cells

###

system: rabbit neutrophil; assay: Influence on the phagocytic action of neutrophils (opsonized ampicillin resistant E. coli, colony count); details: 100 μM, neutrophils treated 1 hour, then opsonized E. coli 1 hour
Below is a list of entries, each paired with its recorded The number of colonies value.
Just the number, please, no unit attached.

// solved cases for The number of colonies follow
(Q) Looking for the measured The number of colonies of CCCCCCCCCCCCCCC(CCCCCCCCCCCCCC)C(=O)NCC1O[C@H](O[C@H]2OC(CNC(=O)C(CCCCCCCCCCCCCC)CCCCCCCCCCCCCC)[C@@H](O)C(O)C2O)C(O)C(O)[C@@H]1O (some centres unmarked) [Ex. 5] , can you help?
(A) 450

(Q) Using the record for CCCCCCCCCCCCCCCC(CCCCCCCCCCCCCCC)C(=O)NCC1O[C@H](O[C@H]2OC(CNC(=O)C(CCCCCCCCCCCCCCC)CCCCCCCCCCCCCCC)[C@@H](O)C(O)C2O)C(O)C(O)[C@@H]1O (some centres unmarked) [Ex. 6] , report its The number of colonies.
(A) 220

(Q) Fill in: The number of colonies of CCCCCCCCCCCCCCC[C@@H](O)[C@@H](CCCCCCCCCCCCCC)C(=O)OCC1O[C@H](O[C@H]2OC(COC(=O)[C@H](CCCCCCCCCCCCCC)[C@H](O)CCCCCCCCCCCCCCC)[C@@H](O)[C@H](O)C2O)C(O)[C@@H](O)[C@@H]1O (some centres unmarked) [TDCM, trehalose 6,6′-dicorynomycolate, reference compound] is ___
(A) 87

(Q) Data request, read-out The number of colonies, for CCCCCCCCCCCC(CCCCCCCCCCC)C(=O)NCC1O[C@H](O[C@H]2OC(CNC(=O)C(CCCCCCCCCCC)CCCCCCCCCCC)[C@@H](O)C(O)C2O)C(O)C(O)[C@@H]1O (some centres unmarked) [Ex. 2]
(A) 172

(Q) What does the data say about its The number of colonies? Entry: CCCCCCCCCCC(CCCCCCCCCC)C(=O)NCC1O[C@H](O[C@H]2OC(CNC(=O)C(CCCCCCCCCC)CCCCCCCCCC)[C@@H](O)C(O)C2O)C(O)C(O)[C@@H]1O (some centres unmarked) [Ex. 1]
(A) 487

Further cases:
(Q) Any idea what its The number of colonies is? The compound is CCCCCCCCCCCCCCCCC(CCCCCCCCCCCCCCCC)C(=O)NCC1O[C@H](O[C@H]2OC(CNC(=O)C(CCCCCCCCCCCCCCCC)CCCCCCCCCCCCCCCC)[C@@H](O)C(O)C2O)C(O)C(O)[C@@H]1O (some centres unmarked) [Ex. 7]
(A) 200

(Q) Return reported The number of colonies; argument: CCCCCCCCCCCCC(CCCCCCCCCCCC)C(=O)NCC1O[C@H](O[C@H]2OC(CNC(=O)C(CCCCCCCCCCCC)CCCCCCCCCCCC)[C@@H](O)C(O)C2O)C(O)C(O)[C@@H]1O (some centres unmarked) [Ex. 3]
(A) 112

(Q) Would you mind telling me what The number of colonies value was observed for CCCCCCCCCCCCCC(CCCCCCCCCCCCC)C(=O)NCC1O[C@H](O[C@H]2OC(CNC(=O)C(CCCCCCCCCCCCC)CCCCCCCCCCCCC)[C@@H](O)C(O)C2O)C(O)C(O)[C@@H]1O (some centres unmarked) [Ex. 4] ?
(A) 350

###

system: rabbit neutrophil; test: Influence on rabbit neutrophil H2O2 production (H2DCFDA fluorescence); type: cell-based; conditions: 100 μM, 2 hours at 37° C., rabbit neutrophils
Quick reference: H2O2 production of the listed items.
Form entry: value (nmol/10^5 Cells) — number only.

(Q) Name the recorded H2O2 production for CCCCCCCCCCCCCC(CCCCCCCCCCCCC)C(=O)NCC1O[C@H](O[C@H]2OC(CNC(=O)C(CCCCCCCCCCCCC)CCCCCCCCCCCCC)[C@@H](O)C(O)C2O)C(O)C(O)[C@@H]1O (some centres unmarked) [Ex. 4] .
(A) 0.18

Turning to the following molecule.
(Q) Using the record for CCCCCCCCCCCCCCC[C@@H](O)[C@@H](CCCCCCCCCCCCCC)C(=O)OCC1O[C@H](O[C@H]2OC(COC(=O)[C@H](CCCCCCCCCCCCCC)[C@H](O)CCCCCCCCCCCCCCC)[C@@H](O)[C@H](O)C2O)C(O)[C@@H](O)[C@@H]1O (some centres unmarked) [TDCM, trehalose 6,6′-dicorynomycolate, reference compound] , report its H2O2 production.
(A) 0.21

###

Quick list: The number of colonies per entry.
test system: rabbit neutrophil; assay: Influence on the phagocytic action of neutrophils (opsonized ampicillin resistant E. coli, colony count); conditions: 50 μM, neutrophils treated 1 hour, then opsonized E. coli 1 hour
The response must contain the number and no unit.

(Q) Record request: The number of colonies value, item CCCCCCCCCCC(CCCCCCCCCC)C(=O)NCC1O[C@H](O[C@H]2OC(CNC(=O)C(CCCCCCCCCC)CCCCCCCCCC)[C@@H](O)C(O)C2O)C(O)C(O)[C@@H]1O (some centres unmarked) [Ex. 1]
(A) 250

(Q) Need The number of colonies of CCCCCCCCCCCC(CCCCCCCCCCC)C(=O)NCC1O[C@H](O[C@H]2OC(CNC(=O)C(CCCCCCCCCCC)CCCCCCCCCCC)[C@@H](O)C(O)C2O)C(O)C(O)[C@@H]1O (some centres unmarked) [Ex. 2] , thanks.
(A) 89

(Q) Entry under review: CCCCCCCCCCCCCCCC(CCCCCCCCCCCCCCC)C(=O)NCC1O[C@H](O[C@H]2OC(CNC(=O)C(CCCCCCCCCCCCCCC)CCCCCCCCCCCCCCC)[C@@H](O)C(O)C2O)C(O)C(O)[C@@H]1O (some centres unmarked) [Ex. 6] . Reported The number of colonies?
(A) 120

(Q) I am curious: what The number of colonies value has been reported for CCCCCCCCCCCCCC(CCCCCCCCCCCCC)C(=O)NCC1O[C@H](O[C@H]2OC(CNC(=O)C(CCCCCCCCCCCCC)CCCCCCCCCCCCC)[C@@H](O)C(O)C2O)C(O)C(O)[C@@H]1O (some centres unmarked) [Ex. 4] ?
(A) 200

(Q) Value lookup for The number of colonies; key = CCCCCCCCCCCCCCC[C@@H](O)[C@@H](CCCCCCCCCCCCCC)C(=O)OCC1O[C@H](O[C@H]2OC(COC(=O)[C@H](CCCCCCCCCCCCCC)[C@H](O)CCCCCCCCCCCCCCC)[C@@H](O)[C@H](O)C2O)C(O)[C@@H](O)[C@@H]1O (some centres unmarked) [TDCM, trehalose 6,6′-dicorynomycolate, reference compound]
(A) 50

Others:
(Q) Please look up its The number of colonies: CCCCCCCCCCCCCCCCC(CCCCCCCCCCCCCCCC)C(=O)NCC1O[C@H](O[C@H]2OC(CNC(=O)C(CCCCCCCCCCCCCCCC)CCCCCCCCCCCCCCCC)[C@@H](O)C(O)C2O)C(O)C(O)[C@@H]1O (some centres unmarked) [Ex. 7]
(A) 110

(Q) What does the record list as The number of colonies for CCCCCCCCCCCCC(CCCCCCCCCCCC)C(=O)NCC1O[C@H](O[C@H]2OC(CNC(=O)C(CCCCCCCCCCCC)CCCCCCCCCCCC)[C@@H](O)C(O)C2O)C(O)C(O)[C@@H]1O (some centres unmarked) [Ex. 3] ?
(A) 58

(Q) Data request, read-out The number of colonies, for CCCCCCCCCCCCCCC(CCCCCCCCCCCCCC)C(=O)NCC1O[C@H](O[C@H]2OC(CNC(=O)C(CCCCCCCCCCCCCC)CCCCCCCCCCCCCC)[C@@H](O)C(O)C2O)C(O)C(O)[C@@H]1O (some centres unmarked) [Ex. 5]
(A) 250
